Values from patent US20250051473A1

# System: T1, recombinant human CD38 extracellular domain protein (ACROBiosystems, Cat #CD8-H5224) (human, UniProt P28907 43-300)
# T1 construct: Bought protein; also called recombinant human CD38 protein
# Method Summary: BLI (Octet 384), IgG on anti-human IgG Fc biosensors, soluble human CD38 as analyte, 1:1 global fit
Measurement Label: kon (M⁻¹ s⁻¹)

>>> reported_result("IgG E-2 (antibody, V domains shown, also called humanized Clone E IgG (EVH1 / EVL1)) VH: QVQLVQSGAEVKKPGSSVKVSCKASGYTFTNHWIEWVRQAPGQGLEWMGDIFPGGGYTDYNEKFKGRVTITADESTSTAYMELSSLRSEDTAVYYCARGRDLAMDYWGQGTLVTVSS VL: DIQMTQSPSSLSASVGDRVTITCHASQNINVWLGWYQQKPGKAPKLLIYKASNLHTGVPSRFSGSGSGTDFTLTISSLQPEDFATYYCQQGQSYPYTFGQGTKVEIK")
496000
>>> reported_result("IgG B-2 (antibody, V domains shown, also called humanized Clone B IgG (BVH1 / BVL1)) VH: QVQLVQSGAEVKKPGSSVKVSCKASGYTFTSYNMHWVRQAPGQGLEWMGYIYPGNGGTNYNQKFKGRVTITADESTSTAYMELSSLRSEDTAVYYCARGASMITTGAWFAYWGQGTLVTVSS VL: DIQMTQSPSSVSASVGDRVTITCRASESLDTYGNSFMYWYQQKPGKAPKLLIYLASSLESGVPSRFSGSGSGTDFTLTISSLQPEDFATYYCHQNHEDPWTFGQGTKVEIK")
281000
>>> reported_result("IgG E-1 (antibody, V domains shown, also called chimeric IgG of Clone E) VH: QVQLQQSGAELVRPGTSVKMSCKAAGYTFTNHWIEWVKQRPGHGLEWIGDIFPGGGYTDYNEKFKGKATLTADTSSSTAYMQLSSLTSEDSAIYYCARGRDLAMDYWGQGTSVTVSS VL: DIQMNQSPSSLSASLGDTITITCHASQNINVWLGWYQQKPGNIPKLLIYKASNLHTGVPSRFSGSGSGTGFTLTISSLQPEDIATYYCQQGQSYPYTFGGGTKLEIK")
587000
